# measured_target: T1, Human CD19-his protein (human, UniProt P15391 20-291)
# T1 construct: bought protein; also called recombinant human CD19-His; CD19 full-length protein; not shown: His tag
# T1 sequence (looked up): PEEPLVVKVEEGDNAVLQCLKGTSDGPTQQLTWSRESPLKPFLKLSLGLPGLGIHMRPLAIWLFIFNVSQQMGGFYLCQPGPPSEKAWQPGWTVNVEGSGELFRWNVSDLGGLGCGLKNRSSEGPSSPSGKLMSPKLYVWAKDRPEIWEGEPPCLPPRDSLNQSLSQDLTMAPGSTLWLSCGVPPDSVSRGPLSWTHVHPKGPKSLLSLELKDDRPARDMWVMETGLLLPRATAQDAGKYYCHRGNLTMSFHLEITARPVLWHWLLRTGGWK
# protocol_description: SPR Biacore, method of example 7.1, human CD19-His
value_kind: Kd (pM)
Give a bare numeral; the unit pM is implied.

Value of measured Kd for the entry F3.121.4-L3H2 (antibody, mouse IgG1, kappa, V domains shown, humanized antibody of F3.121.4, VL3+VH2, murine IgG1 constant regions) VH: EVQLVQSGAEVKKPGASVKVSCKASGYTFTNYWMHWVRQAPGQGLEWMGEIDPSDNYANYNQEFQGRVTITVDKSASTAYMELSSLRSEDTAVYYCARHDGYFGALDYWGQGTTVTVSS VL: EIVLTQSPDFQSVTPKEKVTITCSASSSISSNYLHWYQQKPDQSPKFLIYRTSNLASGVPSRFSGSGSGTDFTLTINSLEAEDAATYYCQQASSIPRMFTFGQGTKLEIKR : 0.0498

Value of measured Kd for the entry F3.121.4-L1H2 (antibody, mouse IgG1, kappa, V domains shown, humanized antibody of F3.121.4, VL1+VH2, murine IgG1 constant regions) VH: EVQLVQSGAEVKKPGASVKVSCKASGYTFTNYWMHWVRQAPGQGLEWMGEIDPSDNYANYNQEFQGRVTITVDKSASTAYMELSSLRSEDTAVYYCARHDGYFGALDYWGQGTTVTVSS VL: EIVLTQSPATLSLSPGERATLSCSASSSISSNYLHWYQQKPGQAPRFLIYRTSNLASGIPARFSGSGSGTDFTLTISSLEPEDFAVYYCQQASSIPRMFTFGQGTKLEIKR : 0.58

Value of measured Kd for the entry F3.121.4-L2H1 (antibody, mouse IgG1, kappa, V domains shown, humanized antibody of F3.121.4, VL2+VH1, murine IgG1 constant regions) VH: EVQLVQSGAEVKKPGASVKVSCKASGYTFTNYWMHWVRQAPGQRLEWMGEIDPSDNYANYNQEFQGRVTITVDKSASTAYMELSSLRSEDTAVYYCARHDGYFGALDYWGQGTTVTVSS VL: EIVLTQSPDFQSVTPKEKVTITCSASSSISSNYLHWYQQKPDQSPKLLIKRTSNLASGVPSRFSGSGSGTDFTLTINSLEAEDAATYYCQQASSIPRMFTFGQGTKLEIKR : 1430

Value of measured Kd for the entry F3.121.4-L3H1 (antibody, mouse IgG1, kappa, V domains shown, humanized antibody of F3.121.4, VL3+VH1, murine IgG1 constant regions) VH: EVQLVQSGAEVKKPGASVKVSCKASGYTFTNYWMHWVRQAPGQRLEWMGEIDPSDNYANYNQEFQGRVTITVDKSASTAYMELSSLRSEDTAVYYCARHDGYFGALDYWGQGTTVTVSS VL: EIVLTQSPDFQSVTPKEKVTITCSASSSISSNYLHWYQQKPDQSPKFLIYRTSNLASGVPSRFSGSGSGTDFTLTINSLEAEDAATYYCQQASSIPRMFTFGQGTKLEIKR : 244

Origin of values: patent US20250042994A1
